experiment: Cynomolgus monkey tolerability, body and organ weight measurements (Example 34); format: in vivo; settings: cynomolgus monkeys, 35 mg/kg subcutaneously, necropsy
Item-by-item account of Spleen weight

>  <substance>
1198831 (CACTTTTACATTAGGA; chemically modified gapmer, further chemistry not given here) [compound 1198831]

>  <Spleen weight>
4 g

$$$$
>  <substance>
1198623 (CTAAGTAAGGTTTCCC; modified gapmer, further chemistry not given here) [compound 1198623]

>  <Spleen weight>
3 g

$$$$
>  <substance>
1076453 (GTAATATTGCAATCTG; 3-10-3 cEt gapmer, further chemistry not given here) [compound 1076453]

>  <Spleen weight>
5 g

$$$$
>  <substance>
1198872 (TGTATGTCAGAAGAGT; chemically modified gapmer, further chemistry not given here) [compound 1198872]

>  <Spleen weight>
4 g

$$$$

Could you now look at the following substance, please?
Ask | Name the recorded Spleen weight of the substance listed here: 958499 (ATTAGAGTATGTGGCA; 3-10-3 cEt gapmer, further chemistry not given here) [compound 958499]
Reply | 4 g

----------
System: Yap1 mRNA
Assay: Antisense inhibition of human Yap1 in A-431 cells by cEt gapmers, single dose (Example 2, RTS4814)
Type: cell-based
Details: Table 5; A-431 cells, 5,000 cells per well, free uptake, 2,000 nM modified oligonucleotide, approx. 48 hours; RTS4814; normalized to RIBOGREEN; Yap1 mRNA relative to untreated control cells
Experimental: Modified oligonucleotides were designed to target a Yap1 nucleic acid and were tested for their effect on Yap1 mRNA level in vitro. The modified oligonucleotides were tested in a series of experiments that had similar culture conditions. […] After a treatment period of approximately 48 hours, RNA was isolated from the cells and Yap1 mRNA levels were measured by quantitative real-time RTPCR. […] Yap1 mRNA levels were normalized to total RNA content, as measured by RIBOGREEN®. […]
Strand notation (5' to 3'): a small letter for the sugar, then the base; units joined by * are phosphorothioate-linked, units joined directly phosphodiester-linked; [ ] holds rarer units or linkages, { } end groups; capitals alone tell only the bases. k = constrained ethyl (cEt); [5mC] = 5-methylcytosine; d = 2'-deoxy (DNA)
Item-by-item account of YAP1 (% UTC)
All answers are understood in % UTC, so give the number only.

Worked examples follow.
>  <substance>
716515 (antisense kT*kA*kA*dG*d[5mC]*dT*dA*dA*dA*dG*d[5mC]*dT*dA*kA*kT*k[5mC]) [Compound 716515]

>  <measured-on>
Yap1 mRNA

>  <YAP1 (% UTC)>
123

$$$$
>  <substance>
716476 (kG*kA*kA*d[5mC]*dT*dA*d[5mC]*dA*dA*dA*d[5mC]*dT*dA*kG*kA*kA; antisense) [Compound 716476]

>  <measured-on>
Yap1 mRNA

>  <YAP1 (% UTC)>
91

$$$$
>  <substance>
716572 (k[5mC]*kA*kG*dT*dA*dA*dG*dA*dA*dG*d[5mC]*d[5mC]*dA*kA*kA*kA; antisense) [Compound 716572]

>  <measured-on>
Yap1 mRNA

>  <YAP1 (% UTC)>
122

$$$$
>  <substance>
716470 (kA*kA*kT*d[5mC]*dG*dA*dG*dA*d[5mC]*dT*dT*dA*dA*kA*kA*kA; antisense) [Compound 716470]

>  <measured-on>
Yap1 mRNA

>  <YAP1 (% UTC)>
104

$$$$
>  <substance>
716395 (kG*k[5mC]*k[5mC]*dG*d[5mC]*dA*dG*d[5mC]*d[5mC]*dT*d[5mC]*dT*d[5mC]*k[5mC]*kT*kT; antisense) [Compound 716395]

>  <measured-on>
Yap1 mRNA

>  <YAP1 (% UTC)>
92

$$$$

Ask | Name the recorded YAP1 (% UTC) of the substance listed here: 716455 (kG*kT*kT*dA*dT*dG*dT*dT*dT*dG*dG*dG*dT*kG*kT*kG; antisense) [Compound 716455]
Reply | 17
